system: MALME-3M melanoma; experiment: NCI-60 one-dose screen, 48 h (100 = growth as untreated, 0 = no growth, -100 = all killed); settings: 10 µM unless noted
Compounds without any hit were thinned out: in the full panel of roughly 83,000, 20% have a hit.
Can you tell me growth for the items I'm about to list?
Respond with the bare value in %.

Which value of growth has been reported for `COc1ccc(C(=O)c2c(N)c(C#N)cn2-c2cccc(OC)c2)cc1` in the records?
40.5

Another: `O=C1[C@@H]2Cc3c([nH]c4ccccc34)[C@H](c3c(Cl)cccc3Cl)N2C(=O)CN1C1CCN(Cc2c(F)cccc2F)CC1`
64.9

Another: `N/C(=N\c1nc2ccc([N+](=O)[O-])cc2s1)C(Cl)(Cl)Cl`
77.4

###

test system: CCRF-CEM leukemia; test: NCI-60 one-dose screen, 48 h; conditions: 10 µM unless noted
About 83,000 compounds went through this panel and 20% of them were active in at least one assay; those are over-represented in the sample as a whole. Active and inactive are the calls of the source. Rule for the calls: active = growth percent below 10; inactive = the rest.
Thanks in advance; please answer with one of these: active, inactive

Look up the recorded call for `CC(C)c1nn(-c2ccccc2)c(N2CCCCC2)c1/C=N/NC(N)=S` in this test.
inactive

Another: `COc1ccc(N)cc1C(=O)Nc1cccc(-c2cc(=O)c3c(OC)c(OC)c(OC)cc3o2)c1`
inactive

Another: `O=C(/C=C1\C=CN(CCCCCCF)c2ccccc21)n1ccc2ccccc21`
inactive

Another: `CC[C@@](C)(NC(=O)C(C)(C)NC(=O)[C@@H](NC(=O)[C@@H]1CCCN1C(=O)C(C)(C)NC(=O)[C@H](CC(C)C)NC(=O)CNC(=O)C(C)(C)NC(=O)[C@@H](NC(=O)C(C)(C)NC(=O)[C@H](CCC(N)=O)NC(=O)[C@H](C)NC(=O)C(C)(C)NC(=O)[C@H](C)NC(=O)C(C)(C)NC(=O)[C@H](C)NC(=O)C(C)(C)NC(C)=O)C(C)C)C(C)C)C(=O)N[C@@H](CCC(N)=O)C(=O)N[C@@H](CCC(N)=O)C(=O)N[C@H](CO)CC1CCCCC1`
inactive

Another: C/C(=C(/C)C1CC1CCN(C(=O)c1ccc([N+](=O)[O-])cc1)S(=O)(=O)c1ccc(C)cc1)C1CCCCC1 (centres undefined)
inactive

Another: `COc1ccc([C@@H]2[C@@H](O)C(=O)N2c2cc(OC)c(OC)c(OC)c2)cc1Cl`
inactive

Another: `Nc1ccc(-c2nnc(SCc3ccc(O)c4ncccc34)n2-c2ccccc2)cc1`
inactive

Another: `CCOC(=O)c1c(NCC(=O)Nc2ccc(Br)cc2)sc2c1CCCC2`
inactive

Another: `C=C(C)[C@@H]1CC[C@]2(COS(C)(=O)=O)CC[C@]3(C)[C@H](CC[C@@H]4[C@@]5(C)CCCNC(C)(C)[C@@H]5CC[C@]43C)[C@@H]12`
inactive

Another: `C=CCn1c(SCC(=O)Nc2cccc(C(=O)/C=C/c3ccc(OC)c(OC)c3)c2)nc2ccccc2c1=O`
inactive

Another: `O=C(NNc1nc2cc(F)c(F)cc2n2cccc12)c1ncccn1`
inactive

Another: `Fc1ccccc1/C=C(/C1=NCCN1)n1cnc2ccccc21`
inactive

Another: `CC1CCN(S(=O)(=O)c2ncsc2-c2ccccc2)CC1`
inactive

Another: `COc1ccc(CN2C(=O)/C(=C/c3nc(CO)cs3)SC2=S)cc1`
inactive

Another: `O=C1c2c(c3c4ccc(Br)cc4oc3c3[nH]c4ccccc4c23)C(=O)N1CCO`
inactive

Another: `CN(C)CCn1c2ccc(N)cc2c2nc3ccccc3nc21`
inactive

Another: CS(=O)c1nccc(-c2c(-c3ccc(F)c(OCCc4ccccc4)c3)nc3sccn23)n1 (centres undefined)
inactive

Another: `COc1cc(C(=O)c2cc(C(C)=O)c3c4ccccc4ccn23)cc(OC)c1OC`
inactive

Another: `COc1cc2c3c(n(CCCN4CCCC4)c(=O)c2cc1OC)-c1cc2c(cc1C3=O)OCO2`
active
